The origin of these recorded values is patent US8093378B2.

Below is a list of entries, each paired with its recorded Bulk Density value.
Assay: Bulk density of crystals passing a 500 μm sieve (tapped)
Type: physicochemical
Settings: crystals with particle size 500 μm or less; weight of crystals/volume of crystals after tapping
Endpoint Label: Bulk Density

C[C@@H](O)[C@H]1C(=O)N2C(C(=O)OCc3ccc([N+](=O)[O-])cc3)=C(OP(=O)(Oc3ccccc3)Oc3ccccc3)[C@H](C)[C@H]12 [Example 2]
0.40
C[C@@H](O)[C@H]1C(=O)N2C(C(=O)OCc3ccc([N+](=O)[O-])cc3)=C(OP(=O)(Oc3ccccc3)Oc3ccccc3)[C@H](C)[C@H]12 [Comparative example 2, reference compound]
0.36
C[C@@H](O)[C@H]1C(=O)N2C(C(=O)OCc3ccc([N+](=O)[O-])cc3)=C(OP(=O)(Oc3ccccc3)Oc3ccccc3)[C@H](C)[C@H]12 [Comparative Example 1, reference compound]
0.37
C[C@@H](O)[C@H]1C(=O)N2C(C(=O)OCc3ccc([N+](=O)[O-])cc3)=C(OP(=O)(Oc3ccccc3)Oc3ccccc3)[C@H](C)[C@H]12 [Example 1]
0.43
